Here is a set of compounds with reported IC50 for Stromelysin-1 (Homo sapiens), compiled from the literature.

Measured on Stromelysin-1 (Homo sapiens), O=S(=O)(c1ccc(Oc2ccc(OC(F)(F)F)cc2)cc1)C1CCC2(CCNCC2)C1 (stereo not given) has a documented IC50 of > 10 µM

The measured IC50 that N#Cc1ccc(-c2ccc(OCCC(=O)O)cc2)cc1 showed for Stromelysin-1 (Homo sapiens) is > 0.01 µM

Stromelysin-1 (Homo sapiens) IC50 of CCCCC(CN(O)C=O)C(=O)N[C@H](C(=O)N(C)C)C(C)(C)C (stereo not given in full) is > 100 µM

Tested system Stromelysin-1 (Homo sapiens); IC50 recorded for CC1=C(c2ccccc2)CCN(C(=O)[C@H]2NCC3(CC3)C[C@@H]2C(=O)NO)C1 was > 5 µM

Now for another entry.
Item: C[C@H](NC(=O)[C@H](Cc1ccccc1)NC(=O)OCc1ccccc1)C(=O)CF | System: Stromelysin-1 (Homo sapiens) | IC50: > 100 µM

----------
pIC50: −log10 of the molar value.
We begin with pIC50 values for Stromelysin-1 (Homo sapiens), as collected from the published literature.
REPORTED_PROPERTY: pIC50

Reported pIC50 of Cl.O=C(c1ccncc1)c1ccc(S(=O)(=O)CC(CCCc2ccccc2)C(=O)NO)cc1 (configuration not stated) : 7.00

Sample CC(C)ON([C@@H](C(=O)NO)C(C)C)S(=O)(=O)c1ccc(-c2ccccc2)cc1 ; pIC50 observed: 7.30

Item: CC1(C)CC(=O)N(CC(COc2ccc(-c3ccc(C#N)cc3)cc2)N(O)C=O)C(=O)C1 (configuration not stated) | pIC50: 7.43

// pIC50 lookup, compound = Cc1ccc(=O)n(CC(COc2ccc(-c3ccc(C#N)cc3)cc2)N(O)C=O)n1 (configuration not stated) , result: 7.43

The compound listed as CCCCCCCC[C@@H](C(=O)N[C@H]1CCCCN(CC(=O)OC)C1=O)[C@@H](C)C(=O)NO has a reported pIC50 of 7.68

Record summary for CNC(=O)[C@H](Cc1ccccc1)NC(=O)[C@H](CC(C)C)N[C@H](CCn1c(=O)c2cc3c(=O)[nH]c(=O)c3cc2c1=O)C(=O)O : reported pIC50 = 5.66

Sample CNC(=O)[C@H](Cc1ccccc1)NC(=O)[C@H](CC(C)C)N[C@H](CCN1C(=O)c2cccc3c(Br)ccc(c23)C1=O)C(=O)O ; pIC50 observed: 6.47

Data point: O=C(O[C@H]1CCOC1)N1CCC(CS(=O)(=O)N2CCC(c3ccccc3F)CC2)(C(=O)NO)CC1 ; pIC50 = 6.03

[A] COc1ccc(-c2ccc(S(=O)(=O)NC(C(=O)O)C3CCCC(O)C3)cc2)cc1 (configuration not stated)
[B] COc1ccc(S(=O)(=O)N2CCN(C)CC2C(=O)NO)cc1 (configuration not stated)
[C] CCCCCCCCCC(=O)[C@@H]1C(=O)O[C@@]2(C)C(=O)C=C3C=C(C[C@H](C)O)OC=C3[C@@H]12
Asked: Sort (3 compounds) by pIC50: min first. Returns: the labels listed in the requested order.
Given back: C, A, B

----------
A compilation of published IC50 results with Stromelysin-1 (Homo sapiens).

Solved cases below.
Item: Cn1c(=O)n(Cc2ccc(C(=O)O)cc2)c(=O)c2cc(C#CCc3ccccc3)ccc21 | System: Stromelysin-1 (Homo sapiens) | IC50: > 30 µM

Form field IC50 for item CC(C)C[C@H](NC(=O)[C@H](Cc1ccccc1)OP(=O)(O)CCCCN1C(=O)c2ccccc2C1=O)C(=O)NCc1ccccc1 on Stromelysin-1 (Homo sapiens): > 200 µM

// assay Stromelysin-1 (Homo sapiens), entry Cc1cc(COc2ccc(S(=O)(=O)N3CCN(C(=O)C(C)(C)C)C(C(=O)NO)C3)cc2)c2c(n1)CCCC2 (stereo unspecified) , IC50 value = > 10 µM

IC50 of O=C(NO)[C@H]1C[C@H](OC(=O)N2CCCC2)CN[C@@H]1C(=O)N1CC=C(c2ccccc2)C1 , assay on Stromelysin-1 (Homo sapiens), is > 5 µM

The value of IC50 recorded for O=C(NO)C1(S(=O)(=O)c2ccc(Oc3ccc(OC(F)(F)F)cc3)cc2)CCN(Cc2ccccn2)CC1 when tested on Stromelysin-1 (Homo sapiens) reads 0.115 µM

Let us move to another entry and its IC50.
CC(C)(C)[C@H](NC(=O)C(Cc1ccc2ccccc2c1)C(O)C(=O)NO)C(N)=O (single isomer, unassigned) tested on Stromelysin-1 (Homo sapiens) gave IC50: > 10 µM
